# System: NIH3T3 cells overexpressing HNF3b
# assay.remarks: MTT cell viability, HNF3b overexpressing cells vs parental line
# Format: cell-based, mouse
# measurement.setup: HNF3b high-expressing cells / parental cell line, 3 to 4 days
# Method: With regard to the function-known genes, the genes shown in the left column of Table 2 were used. […] Cell viabilities were measured according to the following procedures. […] 5) Cells (each high-expressing cells and the parental cell line) were detached from the medium using a trypsin solution, suspended in 10% CS-DMEM and transferred to a test tube and cell numbers (cell/ml) were counted. […] 10) Coloration of formazan which was a metabolite of the MTT dye was measured using a microplate reader. […]
Non-standard residues stand in square brackets, D forms with d. Residues, ends and D or L forms follow the SMILES beside them. Nle = CCCC[C@H](N)C(=O)O
Items are presented alongside their recorded logarithmic value of ratio of IC40 values.
observable: logarithmic value of ratio of IC40 values

{"compound": "CN(C)CCCn1cc(C2=C(c3c[nH]c4ccccc34)C(=O)NC2=O)c2ccccc21 [GF109203X]", "assayed.target": "NIH3T3 cells overexpressing HNF3b", "value": 0.21}
{"compound": "COc1ccc2c(c1)CC[C@@H]1[C@@H]2CC[C@]2(C)[C@@H](NCCCCCCN3C(=O)C=CC3=O)CC[C@@H]12", "assayed.target": "NIH3T3 cells overexpressing HNF3b", "value": "−0.31"}
{"compound": "C=CC1=C(C)c2cc3[n-]c(cc4nc(cc5[n-]c(cc1n2)c(C)c5CCC(=O)O)C(CCC(=O)O)=C4C)c(C)c3C=C.[Cl-].[Cl-].[Sn+4]", "assayed.target": "NIH3T3 cells overexpressing HNF3b", "value": 0.24}
{"compound": "C[C@@H]1O[C@@H](O[C@H]2C[C@@H](O)[C@]3(CO)[C@H]4[C@H](O)C[C@]5(C)[C@@H](C6=CC(=O)OC6)CC[C@]5(O)[C@@H]4CC[C@]3(O)C2)[C@H](O)[C@H](O)[C@H]1O", "assayed.target": "NIH3T3 cells overexpressing HNF3b", "value": "−0.23"}
{"compound": "CC(C)(C)C(=O)Oc1ccc(S(=O)(=O)Nc2ccccc2C(=O)NCC(=O)O)cc1", "assayed.target": "NIH3T3 cells overexpressing HNF3b", "value": "−0.25"}
{"compound": "CCCC[C@@H](C)/C=C(C)/C=C(\\C)C(=O)NC1=C[C@@](O)(/C=C/C=C/C=C/C(=O)NC2=C(O)CCC2=O)[C@@H]2O[C@@H]2C1=O", "assayed.target": "NIH3T3 cells overexpressing HNF3b", "value": "−0.06"}
{"compound": "C=C[C@@]1(C)CC(=O)[C@]2(O)[C@@]3(C)[C@@H](O)CCC(C)(C)[C@@H]3[C@H](O)[C@H](OC(C)=O)[C@@]2(C)O1", "assayed.target": "NIH3T3 cells overexpressing HNF3b", "value": 0.00}
{"compound": "COC[C@H]1OC(=O)c2coc3c2[C@@]1(C)C1=C(C3=O)[C@@H]2CCC(=O)[C@@]2(C)C[C@H]1OC(C)=O", "assayed.target": "NIH3T3 cells overexpressing HNF3b", "value": 0.24}
{"compound": "O=c1c(-c2ccc(O)cc2)coc2cc(O)cc(O)c12", "assayed.target": "NIH3T3 cells overexpressing HNF3b", "value": "−0.21"}
{"compound": "O=CN/C=C/c1cc(O)ccc1O", "assayed.target": "NIH3T3 cells overexpressing HNF3b", "value": "−0.03"}
{"compound": "CC(=O)OCOC(=O)CN(CC(=O)OCOC(C)=O)c1ccccc1OCCOc1ccccc1N(CC(=O)OCOC(C)=O)CC(=O)OCOC(C)=O", "assayed.target": "NIH3T3 cells overexpressing HNF3b", "value": "−0.07"}
{"compound": "C=C1[C@@H](O)[C@@H]2O[C@]3(CC[C@H](/C=C/[C@@H](C)[C@@H]4CC(C)=C[C@@]5(O[C@H](C[C@@](C)(O)C(=O)O)CC[C@H]5O)O4)O3)CC[C@H]2O[C@@H]1[C@@H](O)C[C@H](C)[C@H]1O[C@@]2(CCCCO2)CC[C@H]1C", "assayed.target": "NIH3T3 cells overexpressing HNF3b", "value": 0.08}
{"compound": "C/C=C(/C)C(=O)O[C@H]1C(C)=C2[C@H]([C@@H]1OC(=O)CCCCCCC)[C@@](C)(OC(C)=O)C[C@H](OC(=O)CCC)[C@@]1(O)[C@H]2OC(=O)[C@@]1(C)O", "assayed.target": "NIH3T3 cells overexpressing HNF3b", "value": 0.24}
{"compound": "Nc1nc2nc[nH]c2c(=S)[nH]1", "assayed.target": "NIH3T3 cells overexpressing HNF3b", "value": 0.03}
{"compound": "O=[As]O [NaAsO2, sodium arsenite]", "assayed.target": "NIH3T3 cells overexpressing HNF3b", "value": 0.00}
{"compound": "C=C[C@]1(C)CC[C@@H](C(=C)C)C[C@H]1C(=C)C", "assayed.target": "NIH3T3 cells overexpressing HNF3b", "value": "−0.07"}
{"compound": "CO[C@H]1[C@@H](OC)C[C@H](C)[C@@H](OC)C2=CC(=O)C=C(NC(=O)/C(C)=C/C=C\\[C@H](OC)[C@@H](OC(N)=O)/C(C)=C/[C@@H]1C)C2=O", "assayed.target": "NIH3T3 cells overexpressing HNF3b", "value": "−0.18"}
{"compound": "CCCC[C@@H](C=O)NC(=O)[C@H](CC(C)C)NC(=O)[C@H](CC(C)C)NC(C)=O [ALLN] (Ac-Leu-Leu-[Nle]-aldehyde)", "assayed.target": "NIH3T3 cells overexpressing HNF3b", "value": 0.28}
{"compound": "CNc1ccc2oc(C[C@H]3O[C@@]4(CC[C@H]3C)O[C@H]([C@H](C)C(=O)c3ccc[nH]3)[C@H](C)C[C@H]4C)nc2c1C(=O)O", "assayed.target": "NIH3T3 cells overexpressing HNF3b", "value": "−0.16"}
{"compound": "COC(=O)[C@@]1(O)C[C@H]2O[C@]1(C)n1c3ccccc3c3c4c(c5c6ccccc6n2c5c31)C(=O)NC4 [K252a]", "assayed.target": "NIH3T3 cells overexpressing HNF3b", "value": "−0.21"}
{"compound": "C[C@@H]1C[C@@H]([C@H](O)CC2CC(=O)NC(=O)C2)C(=O)[C@@H](C)C1 [CHX, cycloheximide]", "assayed.target": "NIH3T3 cells overexpressing HNF3b", "value": 0.07}

====

# Test system: NIH3T3 cells overexpressing caspase-1
# assay.remarks: MTT cell viability, caspase-1 overexpressing cells vs parental line
# Type: cell-based, mouse
# measurement.setup: caspase-1 high-expressing cells / parental cell line, 3 to 4 days
Doc: threshold -0.06 (exclusive). Items with logarithmic value of ratio of IC40 values beneath it return Satisfied; others return Not satisfied.

{"mol.smiles": "C=C1[C@@H](O)[C@@H]2O[C@]3(CC[C@H](/C=C/[C@@H](C)[C@@H]4CC(C)=C[C@@]5(O[C@H](C[C@@](C)(O)C(=O)O)CC[C@H]5O)O4)O3)CC[C@H]2O[C@@H]1[C@@H](O)C[C@H](C)[C@H]1O[C@@]2(CCCCO2)CC[C@H]1C", "assayed.target": "NIH3T3 cells overexpressing caspase-1", "qualitative.label": "Not satisfied"}
{"mol.smiles": "C/C=C(/C)C(=O)O[C@H]1C(C)=C2[C@H]([C@@H]1OC(=O)CCCCCCC)[C@@](C)(OC(C)=O)C[C@H](OC(=O)CCC)[C@@]1(O)[C@H]2OC(=O)[C@@]1(C)O", "assayed.target": "NIH3T3 cells overexpressing caspase-1", "qualitative.label": "Satisfied"}
{"mol.smiles": "COC[C@H]1OC(=O)c2coc3c2[C@@]1(C)C1=C(C3=O)[C@@H]2CCC(=O)[C@@]2(C)C[C@H]1OC(C)=O", "assayed.target": "NIH3T3 cells overexpressing caspase-1", "qualitative.label": "Not satisfied"}
{"mol.smiles": "CC(C)(C)C(=O)Oc1ccc(S(=O)(=O)Nc2ccccc2C(=O)NCC(=O)O)cc1", "assayed.target": "NIH3T3 cells overexpressing caspase-1", "qualitative.label": "Not satisfied"}

====

# System: NIH3T3 cells overexpressing DAN
# assay.remarks: MTT cell viability, DAN overexpressing cells vs parental line
# Format: cell-based, mouse
# measurement.setup: DAN high-expressing cells / parental cell line, 3 to 4 days
Doc: threshold 0.04 (exclusive). Items with logarithmic value of ratio of IC40 values beneath it return True; others return False.

{"molecule": "O=c1c(-c2ccc(O)cc2)coc2cc(O)cc(O)c12", "qualitative.label": "False"}
{"molecule": "CC(=O)OCOC(=O)CN(CC(=O)OCOC(C)=O)c1ccccc1OCCOc1ccccc1N(CC(=O)OCOC(C)=O)CC(=O)OCOC(C)=O", "qualitative.label": "False"}
{"molecule": "O=[As]O [NaAsO2, sodium arsenite]", "qualitative.label": "True"}
{"molecule": "O=CN/C=C/c1cc(O)ccc1O", "qualitative.label": "False"}
{"molecule": "COC(=O)[C@@]1(O)C[C@H]2O[C@]1(C)n1c3ccccc3c3c4c(c5c6ccccc6n2c5c31)C(=O)NC4 [K252a]", "qualitative.label": "True"}
